- tested.target: 5'-AMP-activated protein kinase catalytic subunit alpha-1 (Homo sapiens);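 note: mean percent inhibition of the AMPK A1B1G1 complex (alpha1 beta1 gamma1) in the GSK PKIS kinase inhibitor screen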
- experimental.parameters: at 1 µM
Consider the following compounds and their measured inhibition readings.
Numbers only here, please. The scale is %.

Some compounds with known inhibition results, for comparison:
COc1ccc(-c2cc3c(N)ncnc3o2)cc1 0.8
N#Cc1c(NC(=O)CN2CCOCC2)sc2c1CCCC2 4.25

Field inhibition (5'-AMP-activated protein kinase catalytic subunit alpha-1 (Homo sapiens)), entry "CCn1c(-c2nonc2N)nc2c(C#CC(C)(C)O)nc(OC[C@H](N)c3ccccc3)cc21" : 65.7

Field inhibition (5'-AMP-activated protein kinase catalytic subunit alpha-1 (Homo sapiens)), entry "c1cc(-c2cnn3nc(N4CCOCC4)ccc23)nc(NC2CC2)n1" : 6.88

Field inhibition (5'-AMP-activated protein kinase catalytic subunit alpha-1 (Homo sapiens)), entry "Nc1nc(-c2ccc(F)cc2)c(-c2ccc3ncccc3n2)s1" : 5.29

* * *

- tested.target: Phosphorylase b kinase gamma catalytic chain, skeletal muscle/heart isoform (Homo sapiens) (UniProt Q16816);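 note: each value is a mean percent inhibition of PHKG1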
- Sequence (Q16816 whole entry, looked up, canonical isoform): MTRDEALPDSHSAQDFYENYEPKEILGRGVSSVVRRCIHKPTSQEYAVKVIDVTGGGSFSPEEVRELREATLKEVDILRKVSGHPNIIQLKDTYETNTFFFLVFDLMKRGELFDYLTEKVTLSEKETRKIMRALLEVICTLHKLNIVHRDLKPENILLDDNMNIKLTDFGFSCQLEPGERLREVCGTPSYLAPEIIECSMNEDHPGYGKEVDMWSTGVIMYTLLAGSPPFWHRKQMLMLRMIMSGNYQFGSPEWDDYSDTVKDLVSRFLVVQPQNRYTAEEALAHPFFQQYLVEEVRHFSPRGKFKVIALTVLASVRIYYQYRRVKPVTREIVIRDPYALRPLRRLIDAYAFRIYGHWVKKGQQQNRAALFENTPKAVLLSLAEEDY
- experimental.parameters: at 1 µM
property.label: inhibition (%)
Numbers only here, please. The scale is %.

compound	inhibition / %
COc1ccc(-c2nn3ncccc3c2-c2ccnc(Nc3ccc4c(c3)OCCO4)n2)cc1	6.21
CC1=C(C(=O)Nc2cc(Cl)c3[nH]ncc3c2)C(c2ccc(C(F)(F)F)cc2)CC(=O)N1 (stereo not given)	6.61
COc1cccc(-c2c[nH]c3c(N/N=C/c4ccncc4)ncnc23)c1	12.1

Consider "CCc1nn2ncccc2c1-c1ccnc(NC2CC2)n1" . Its measured inhibition is 2.68

Consider "c1ccc(-c2nc3n(c2-c2ccc4c(c2)OCO4)CCC3)nc1" . Its measured inhibition is 2.79

* * *

- tested.target: Casein kinase I isoform alpha (Homo sapiens);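 note: each value is a mean percent inhibition of the kinase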
- experimental.parameters: at 1 µM
Consider the following molecules and their measured inhibition readings.
Numbers only here, please. The scale is %.

Some molecules with known inhibition results, for comparison:
c1ccc(-c2nc3n(c2-c2ccc4c(c2)OCO4)CCC3)nc1 60.1
CCn1cc(-c2ccnc3[nH]ccc23)c(-c2cccc(NC(=O)Nc3ccc(OCc4ccccc4)cc3)c2)n1 -1.47
CN(C)CCOc1ccc(-c2nc(-c3ccncc3)c(-c3ccc4c(c3)CC/C4=N\O)[nH]2)cc1 7.2
Nc1ncc(-c2cccc(S(N)(=O)=O)c2)c2scc(-c3ccc(F)c(Cl)c3)c12 36.5
COc1ccc2c(-c3ccnc(Nc4cccc(OC(F)(F)F)c4)n3)cnn2n1 9.17

Consider "N#Cc1c(NC(=O)c2ccc(F)cc2)sc2c1CCCC2" . Its measured inhibition is 1.93

Consider "COc1cc(/C=N/Nc2ncnc3[nH]ncc23)ccc1O" . Its measured inhibition is 13.7

Consider "Fc1ccc(-c2nn3ncccc3c2-c2ccnc(Nc3ccc4c(c3)OCCO4)n2)cc1" . Its measured inhibition is 72.5

Consider "COc1ccc2[nH]c3c4[nH]c5ccc(OC)cc5c4c4c(c3c2c1)C(=O)NC4=O" . Its measured inhibition is 5.69

Consider "CNC(=O)c1cc(-c2ccc(F)cc2)cc(-c2ccc(S(=O)(=O)N3CCCC3)cc2)c1N" . Its measured inhibition is 3.11

Consider "COc1ccc(CNC(=O)c2ccc(-c3cc(-c4nnc(C)o4)ccc3C)cc2)cc1" . Its measured inhibition is 2.48

Consider "CCN(CC)S(=O)(=O)c1ccc(OC)c(Nc2ncc(-c3ccccc3)o2)c1" . Its measured inhibition is 1.02

Consider "FC(F)(F)c1cccc(-c2nn3ncccc3c2-c2ccnc(Nc3ccc4c(c3)OCCO4)n2)c1" . Its measured inhibition is 4.39

Consider "CCn1c(-c2nonc2N)nc2ccccc21" . Its measured inhibition is 3.37

* * *

Consider the following molecules and their measured inhibition readings.
- tested.target: Serine/threonine-protein kinase Nek1 (Homo sapiens);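 note: mean percent inhibition of NEK1 kinase, from the GSK PKIS (published kinase inhibitor set) screening panel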
- experimental.parameters: at 0.1 µM

Consider "CC(C)(CO)CNC(=O)c1ccc2c(c1)/C(=N/Nc1ccc(S(N)(=O)=O)cc1)C(=O)N2" . Its measured inhibition is 0.37%

Consider "O=C(Nc1n[nH]c2cc(-c3ccc(F)cc3)ccc12)C1CC1" . Its measured inhibition is 2.65%

Consider "CCn1c(-c2nonc2N)nc2c(C#CC(C)(C)O)ncc(OC3CCNCC3)c21" . Its measured inhibition is 2.28%

* * *

Consider the following compounds and their measured inhibition readings.
- tested.target: Serine/threonine-protein kinase pim-1 (Homo sapiens) (UniProt P11309);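 note: reported figures are mean percent inhibition of PIM1 kinase activity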
- Sequence (P11309 whole entry, looked up): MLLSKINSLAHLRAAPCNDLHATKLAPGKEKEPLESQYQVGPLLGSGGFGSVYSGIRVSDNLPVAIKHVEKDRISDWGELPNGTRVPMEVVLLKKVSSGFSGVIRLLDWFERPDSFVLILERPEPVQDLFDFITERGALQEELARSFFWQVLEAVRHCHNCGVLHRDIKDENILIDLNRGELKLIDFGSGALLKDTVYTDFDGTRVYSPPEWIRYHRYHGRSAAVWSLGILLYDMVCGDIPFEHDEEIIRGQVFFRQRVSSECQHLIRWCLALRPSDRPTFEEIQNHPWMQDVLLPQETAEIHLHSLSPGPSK
- experimental.parameters: at 1 µM
Numeric answer plus unit only.

compound	inhibition
Cc1ccc(O)cc1Nc1ccnc2cc(-c3ccccn3)ccc12	3.79%
CCc1nn2ncccc2c1-c1ccnc(NC2CC2)n1	1.72%

Consider "c1ccc(-c2nc3n(c2-c2ccc4c(c2)OCO4)CCC3)nc1" . Its measured inhibition is 0.72%

Consider "[O-][S+]1CCN(Cc2ccc(-c3ccc4ncnc(Nc5ccc(OCc6cccc(F)c6)c(Cl)c5)c4c3)o2)CC1" . Its measured inhibition is 2.24%

Consider "COc1cc(/C=N/Nc2ncnc3[nH]ncc23)ccc1O" . Its measured inhibition is 10.9%

Consider "Fc1cccc(COc2ccc(Nc3ncnc4sc(-c5ccco5)cc34)cc2Cl)c1" . Its measured inhibition is 0.55%

Consider CC1=C(C(=O)Nc2cc(Cl)c3[nH]ncc3c2)C(c2ccc(C(F)(F)F)cc2)CC(=O)N1 (stereo not given) . Its measured inhibition is 0.15%

Consider "COc1ccc2c(-c3ccnc(Nc4cccc(OC(F)(F)F)c4)n3)cnn2n1" . Its measured inhibition is 0.36%

* * *

- tested.target: Mitogen-activated protein kinase 9 (Homo sapiens) (UniProt P45984);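 note: reported figure is the mean inhibition of JNK2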
- Sequence (P45984 whole entry, looked up): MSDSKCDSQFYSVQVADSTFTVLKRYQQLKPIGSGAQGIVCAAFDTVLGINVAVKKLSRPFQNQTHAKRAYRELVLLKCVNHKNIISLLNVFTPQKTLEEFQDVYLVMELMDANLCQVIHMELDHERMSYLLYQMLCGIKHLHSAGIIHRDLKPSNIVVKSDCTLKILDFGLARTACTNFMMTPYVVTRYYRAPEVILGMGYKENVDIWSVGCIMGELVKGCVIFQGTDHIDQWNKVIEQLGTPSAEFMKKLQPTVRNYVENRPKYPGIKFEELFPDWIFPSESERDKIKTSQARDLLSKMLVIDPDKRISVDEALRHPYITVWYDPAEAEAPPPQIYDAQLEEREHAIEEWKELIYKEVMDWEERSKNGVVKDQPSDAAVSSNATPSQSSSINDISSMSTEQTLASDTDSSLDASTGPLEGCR
- experimental.parameters: at 1 µM
Consider the following molecules and their measured inhibition readings.
Numbers only here, please. The scale is %.

Field inhibition (Mitogen-activated protein kinase 9 (Homo sapiens) (UniProt P45984)), entry "CN1CCC(n2cnc(-c3ccc(F)cc3)c2-c2ccnc(Nc3ccccc3)n2)CC1" : 74.7

Field inhibition (Mitogen-activated protein kinase 9 (Homo sapiens) (UniProt P45984)), entry "CS(=O)(=O)CCNCc1ccc(-c2ccc3ncnc(Nc4ccc(OCc5ccccc5)c(C(F)(F)F)c4)c3c2)o1" : 0.92

Field inhibition (Mitogen-activated protein kinase 9 (Homo sapiens) (UniProt P45984)), entry "CCOc1ccc2c(-c3ccnc(Nc4cccc(C(F)(F)F)c4)n3)cnn2n1" : 1.35

Field inhibition (Mitogen-activated protein kinase 9 (Homo sapiens) (UniProt P45984)), entry "Cc1ccc2c(-c3ccnc(Nc4ccccc4)n3)c(-c3ccc(F)cc3)nn2n1" : 81.2

Field inhibition (Mitogen-activated protein kinase 9 (Homo sapiens) (UniProt P45984)), entry "CCn1c(-c2nonc2N)nc2c(C#CC(C)(C)O)ncc(OC3CCNCC3)c21" : 6.93

Field inhibition (Mitogen-activated protein kinase 9 (Homo sapiens) (UniProt P45984)), entry "O=C(O[C@H]1CN[C@H](C#Cc2cc3ncnc(Nc4ccc(Cc5ccccc5)cc4)c3s2)C1)N1CCOCC1" : -0.45

Field inhibition (Mitogen-activated protein kinase 9 (Homo sapiens) (UniProt P45984)), entry "Clc1ccc(-c2nn3ncccc3c2-c2ccnc(Nc3ccccc3)n2)cc1" : 73.4

Field inhibition (Mitogen-activated protein kinase 9 (Homo sapiens) (UniProt P45984)), entry "Fc1ccc(-c2cc(-c3c[nH]nc3-c3ccccn3)ccn2)cc1" : 11.3

Field inhibition (Mitogen-activated protein kinase 9 (Homo sapiens) (UniProt P45984)), entry "Cc1ccc(O)cc1Nc1ccnc2cc(-c3ccccn3)ccc12" : 11.5

Field inhibition (Mitogen-activated protein kinase 9 (Homo sapiens) (UniProt P45984)), entry "COc1ccc(-c2cc3c(N)ncnc3o2)cc1" : -0.18

Field inhibition (Mitogen-activated protein kinase 9 (Homo sapiens) (UniProt P45984)), entry "CC(C)COC(=O)c1ccc2c(c1)/C(=C/Nc1ccc(S(N)(=O)=O)cc1)C(=O)N2" : 10.8

Field inhibition (Mitogen-activated protein kinase 9 (Homo sapiens) (UniProt P45984)), entry "COc1cccc(-c2c[nH]c3c(N/N=C/c4ccncc4)ncnc23)c1" : 8.51

Field inhibition (Mitogen-activated protein kinase 9 (Homo sapiens) (UniProt P45984)), entry "CS(=O)(=O)CCNCc1coc(-c2ccc3ncnc(Nc4ccc(OCc5ccccc5)cc4)c3c2)c1" : 2.72

Field inhibition (Mitogen-activated protein kinase 9 (Homo sapiens) (UniProt P45984)), entry "O=S(=O)(CCNCc1ccc(-c2ccc3ncnc(Nc4ccc(OCc5cccc(F)c5)c(Cl)c4)c3c2)o1)c1ccccc1" : 5.2

Field inhibition (Mitogen-activated protein kinase 9 (Homo sapiens) (UniProt P45984)), entry "COc1ccc(CNC(=O)c2ccc(-c3cc(-c4nnc(C)o4)ccc3C)cc2)cc1" : 2.51

Field inhibition (Mitogen-activated protein kinase 9 (Homo sapiens) (UniProt P45984)), entry "COc1cc(N2CCN(C(C)C)CC2)ccc1Nc1nc(Nc2ccc(F)cc2C(N)=O)c2cc[nH]c2n1" : 89.1

Field inhibition (Mitogen-activated protein kinase 9 (Homo sapiens) (UniProt P45984)), entry "Cc1cccc2c1NC(=O)/C2=N\Nc1ccc(S(N)(=O)=O)cc1" : 4.49
